- Tested on: FaDu
- Measurement description: Bulk cancer cell viability, CellTiter-Glo, FaDu
- Type: cell-based
- Condition label: viability 72 hours after drug treatment
pIC50: −log10 of the molar value.
List of pIC50 values.
Measured attribute: pIC50

{"Mol": "CCN(CC)CCNC(=O)c1c(C)[nH]c(/C=C2\\C(=O)Nc3ccc(-c4cn(-c5ccccc5)nc4C)cc32)c1C", "Measured attribute": "pIC50", "Obs value": 5.24}
{"Mol": "CCN(CC)CCNC(=O)c1c(C)[nH]c(/C=C2\\C(=O)Nc3ccc(-c4nnc(-c5ccccc5)s4)cc32)c1C", "Measured attribute": "pIC50", "Obs value": 5.10}
